B1: ZNF8 (parent)
chain: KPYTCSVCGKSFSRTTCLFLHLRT

variants of: B1; experiment: protein stability index of a GFP-peptide fusion (GPS, HEK-293T) (PSI 1-6); higher = more stable; conditions: c terminus: a fixed tail appended;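 also: lentivirally expressed fusions sorted by FACS into six bins by GFP to DsRed ratio, PSI derived from sequencing read proportions per bin multiplied by bin number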
Quick rule: protein stability index of at least 2 means y, below that means n.

Some solved cases for reference:
Alteration: R23W
Assigned category: n
//
Alteration: R14Q
Assigned category: y
//
Alteration: C8R
Assigned category: y

# input for lookup
Query string: Can R14K be said to have protein stability index at or above 2?
Result string: y
